conditions: in n-butanol, 315.85 K
Parameter Measured: solubility (mole fraction)
One number for each entry.

Which solubility (mole fraction) is reported for this compound? C[C@@H]1CC[C@@]2(OC1)O[C@H]1C[C@H]3[C@@H]4CC=C5C[C@@H](O)CC[C@]5(C)[C@H]4CC[C@]3(C)[C@H]1[C@@H]2C
0.0084

---

conditions: in n-pentanol, 318.75 K
Parameter Measured: solubility (mole fraction)
One number for each entry.

Which solubility (mole fraction) is reported for this compound? C[C@@H]1CC[C@@]2(OC1)O[C@H]1C[C@H]3[C@@H]4CC=C5C[C@@H](O)CC[C@]5(C)[C@H]4CC[C@]3(C)[C@H]1[C@@H]2C
0.0105

---

conditions: in n-pentanol, 307.65 K
Parameter Measured: solubility (mole fraction)
Give bare numbers.

Which solubility (mole fraction) is reported for this molecule? C[C@@H]1CC[C@@]2(OC1)O[C@H]1C[C@H]3[C@@H]4CC=C5C[C@@H](O)CC[C@]5(C)[C@H]4CC[C@]3(C)[C@H]1[C@@H]2C
0.00722

---

conditions: in n-butanol, 323.45 K
Parameter Measured: solubility (mole fraction)
One number for each entry.

Which solubility (mole fraction) is reported for this molecule? C[C@@H]1CC[C@@]2(OC1)O[C@H]1C[C@H]3[C@@H]4CC=C5C[C@@H](O)CC[C@]5(C)[C@H]4CC[C@]3(C)[C@H]1[C@@H]2C
0.0105

---

conditions: in isooctanol, 311.85 K
Parameter Measured: solubility (mole fraction)
Numbers only.

Which solubility (mole fraction) is reported for this compound? C[C@@H]1CC[C@@]2(OC1)O[C@H]1C[C@H]3[C@@H]4CC=C5C[C@@H](O)CC[C@]5(C)[C@H]4CC[C@]3(C)[C@H]1[C@@H]2C
0.0129

---

conditions: in n-butanol, 295.75 K
Parameter Measured: solubility (mole fraction)
Give bare numbers.

Which solubility (mole fraction) is reported for this compound? C[C@@H]1CC[C@@]2(OC1)O[C@H]1C[C@H]3[C@@H]4CC=C5C[C@@H](O)CC[C@]5(C)[C@H]4CC[C@]3(C)[C@H]1[C@@H]2C
0.00469

---

details: in n-propanol, 326.35 K
Parameter Measured: solubility (mole fraction)
One number for each entry.

Which solubility (mole fraction) is reported for this compound? C[C@@H]1CC[C@@]2(OC1)O[C@H]1C[C@H]3[C@@H]4CC=C5C[C@@H](O)CC[C@]5(C)[C@H]4CC[C@]3(C)[C@H]1[C@@H]2C
0.0059

---

conditions: in tert-butanol, 328.65 K
Parameter Measured: solubility (mole fraction)

Which solubility (mole fraction) is reported for this compound? C[C@@H]1CC[C@@]2(OC1)O[C@H]1C[C@H]3[C@@H]4CC=C5C[C@@H](O)CC[C@]5(C)[C@H]4CC[C@]3(C)[C@H]1[C@@H]2C
0.00467

---

conditions: in n-propanol, 295.55 K
Parameter Measured: solubility (mole fraction)

Which solubility (mole fraction) is reported for this compound? C[C@@H]1CC[C@@]2(OC1)O[C@H]1C[C@H]3[C@@H]4CC=C5C[C@@H](O)CC[C@]5(C)[C@H]4CC[C@]3(C)[C@H]1[C@@H]2C
0.00243

---

details: in isobutanol, 330.65 K
Parameter Measured: solubility (mole fraction)
Give bare numbers.

Which solubility (mole fraction) is reported for this compound? C[C@@H]1CC[C@@]2(OC1)O[C@H]1C[C@H]3[C@@H]4CC=C5C[C@@H](O)CC[C@]5(C)[C@H]4CC[C@]3(C)[C@H]1[C@@H]2C
0.00979
